Source: PubChem BioAssay (NCI)

protocol-summary: NCI Yeast Anticancer Drug Screen. Data for the cln2 rad14 strain (AID 165)
particulars: S. cerevisiae cln2 rad14 strain, at 50.0 µM (retest, dose inferred, filed as 5.0)
This is part of a sample that, as a whole, favours compounds with a hit. Of some 79,000 tested, about 15% had one in any assay. The source made the active and inactive calls. No stated cut-off is given here; in the data, active means growth inhibition above about 70%; inactive means the rest.
Labels: Y for active, N for inactive

[
  {
    "compound": "CC1(C)[C@@H]2CC[C@]1(C)[C@@H](OC(=O)CSC#N)C2",
    "label-class": "Y"
  },
  {
    "compound": "Cc1ccc(N2CC(O)CN(c3ccc(C)cc3)CC(O)C2)cc1 (configuration not stated)",
    "label-class": "N"
  },
  {
    "compound": "O=C(O)c1ccc(CSc2ccc(Cl)cc2)cc1",
    "label-class": "N"
  },
  {
    "compound": "Cc1ccccc1-n1c(N)c(-c2nc3ccccc3[nH]2)sc1=S",
    "label-class": "N"
  },
  {
    "compound": "CCCCCCCCC(=O)NCCCNCCCNC(=O)CCCCCCCC",
    "label-class": "N"
  },
  {
    "compound": "CC(=O)OCC1OC(OC2C=C(O[Si](C)(C)C)C[C@H]3C(=O)C=CC(=O)[C@@H]23)C(OC(C)=O)C(OC(C)=O)C1OC(C)=O (some centres not stated)",
    "label-class": "Y"
  },
  {
    "compound": "CN1C/C(=C\\c2ccc(Cl)cc2)C(=O)/C(=C/c2ccc(Cl)cc2)C1",
    "label-class": "Y"
  }
]
